Record: compiled Kd on Receptor-interacting serine/threonine-protein kinase 1 (Homo sapiens, UniProt Q13546) from multiple reports.

Completed entries (count: 2):
{"columns": ["mol.smiles", "target.of.assay", "Kd"],
 "data": [
  ["C[C@H](Oc1cc(-c2nn(C)c3c(-c4cnn(C(F)(F)F)c4)cnc(N)c23)ccc1NS(=O)(=O)C(F)F)c1ccc(F)cc1", "Receptor-interacting serine/threonine-protein kinase 1 (Homo sapiens, UniProt Q13546)", "> 10 µM"],
  ["CC(C)S(=O)(=O)Nc1ccc(-c2n[nH]c(Nc3cccc(C(F)(F)F)n3)c2C(N)=O)cc1", "Receptor-interacting serine/threonine-protein kinase 1 (Homo sapiens, UniProt Q13546)", "> 30 µM"]
]}

Task item: # input compound: COc1cnc(Nc2[nH]nc(-c3ccc(NS(=O)(=O)CC(F)(F)F)c(OCc4ccc(F)cc4)c3)c2C(N)=O)cn1 ; wanted: its Kd
Reply: > 30 µM

Task item: What value of Kd has been recorded for this entry: C[C@H](Oc1cc(-c2nn(C)c3c(-c4ccc(N5CCNCC5)nc4)cnc(N)c23)ccc1NS(=O)(=O)C(F)F)c1ccc(F)cc1
Reply: > 10 µM

Task item: Requested field: Kd. Item: C[C@H](Oc1cc(-c2n[nH]c(Nc3cc(C4CCC4)on3)c2C(N)=O)ccc1NS(=O)(=O)C(F)F)c1ccc(F)cc1
Reply: > 30 µM

Task item: Could you share which Kd value was measured for C[C@H](Oc1cc(-c2nn(C)c3c(-c4cnn(CCO)c4)cnc(N)c23)ccc1NS(=O)(=O)C(F)F)c1ccc(F)cc1 ?
Reply: > 10 µM

* * *

pKd: −log10 of the molar value.
// note: pKd values for Receptor-interacting serine/threonine-protein kinase 1 (Homo sapiens) were reported in different studies

The following molecules have reported results that may help.
{"columns": ["molecule", "property", "result"],
 "data": [
  ["CCS(=O)(=O)Nc1ccc(-c2n[nH]c(Nc3ccc4ccc(Cl)cc4n3)c2C(N)=O)cc1OCc1ccc(F)cc1", "pKd", "< 4.52"],
  ["C[C@H](Oc1cc(-c2cnn3ccnc(N)c23)ccc1NS(=O)(=O)C(F)F)c1ccc(F)cc1", "pKd", "< 5.00"],
  ["COc1ccc(Nc2[nH]nc(-c3ccc(NS(=O)(=O)CC(F)(F)F)c(OCc4ccc(F)cc4)c3)c2C(N)=O)cn1", "pKd", "< 4.52"],
  ["C[C@H](Oc1cc(-c2nn(C)c3c(C#CC4CCNCC4)cnc(N)c23)ccc1NS(=O)(=O)C(F)F)c1ccc(F)cc1", "pKd", "< 5.00"],
  ["C[C@H](Oc1cc(-c2n[nH]c(Nc3ccccn3)c2C(N)=O)ccc1NS(=O)(=O)CC(F)(F)F)c1ccc(F)cc1", "pKd", "< 4.52"]
]}

Task item: Give recorded pKd with Receptor-interacting serine/threonine-protein kinase 1 (Homo sapiens) for the following molecule: C[C@H](Oc1cc(-c2nn(C)c3c(N4CCOCC4)cnc(N)c23)ccc1NS(=O)(=O)C(F)F)c1ccc(F)cc1
Reply: < 5.00

Task item: Test system Receptor-interacting serine/threonine-protein kinase 1 (Homo sapiens); read-out pKd; what value for CCS(=O)(=O)Nc1ccc(-c2cnn3ccnc(N)c23)cc1OCc1ccc(F)cc1 ?
Reply: < 5.00

Task item: Short answer please: pKd, Receptor-interacting serine/threonine-protein kinase 1 (Homo sapiens), entry CCS(=O)(=O)Nc1ccc(-c2n[nH]c(Nc3ccccn3)c2C(N)=O)cc1OCC1CCCCC1
Reply: < 4.52

Task item: What is its pKd for Receptor-interacting serine/threonine-protein kinase 1 (Homo sapiens)? Entry: CCS(=O)(=O)Nc1ccc(-c2n[nH]c(Nc3cc(C(F)(F)F)ccn3)c2C(N)=O)cc1
Reply: < 4.52

Task item: Lab note: need pKd for C[C@H](Oc1cc(-c2n[nH]c(Nc3cnccn3)c2C(N)=O)ccc1NS(=O)(=O)CC(F)(F)F)c1cccc(F)c1 on Receptor-interacting serine/threonine-protein kinase 1 (Homo sapiens), anyone have it?
Reply: < 4.52

Task item: What pKd appears in the records for this molecule with Receptor-interacting serine/threonine-protein kinase 1 (Homo sapiens)? Cn1cc(-c2cnc(N)c3c(-c4ccc(NS(=O)(=O)C(F)F)c(OCc5ccc(F)cc5)c4)nn(C)c23)cn1
Reply: < 5.00

Task item: // lookup pKd | system=Receptor-interacting serine/threonine-protein kinase 1 (Homo sapiens) | key= CC(C)Oc1cc(-c2nn(C)c3c(-c4cnn(C5CCOCC5)c4)cnc(N)c23)ccc1NS(=O)(=O)C(F)F
Reply: < 5.00

Task item: Tell me reported pKd for COCC(Oc1cc(-c2nn(C)c3c(-c4cnn(C5CCOCC5)c4)cnc(N)c23)ccc1NS(=O)(=O)C(F)F)c1ccc(F)cc1 (racemic) , tested with Receptor-interacting serine/threonine-protein kinase 1 (Homo sapiens).
Reply: < 5.00

Task item: # query: pKd | item CCS(=O)(=O)Nc1ccc(-c2n[nH]c(Nc3cncc(C(F)(F)F)n3)c2C(N)=O)cc1OCc1ccc(F)cc1 | system: Receptor-interacting serine/threonine-protein kinase 1 (Homo sapiens)
Reply: < 4.52

Task item: Item: C[C@H](Oc1cc(-c2nn(C)c3c(-c4cnn(C5CCNCC5)c4)cnc(N)c23)ccc1NS(=O)(=O)C(F)F)c1ccc(F)cc1 Test system: Receptor-interacting serine/threonine-protein kinase 1 (Homo sapiens) Read-out: pKd Value: ?
Reply: < 5.00

Task item: Request: pKd, test system Receptor-interacting serine/threonine-protein kinase 1 (Homo sapiens), entry Cc1ccc(-c2cnc(N)c3c(-c4ccc(NS(=O)(=O)C(F)F)c(O[C@@H](C)c5ccc(F)cc5)c4)nn(C)c23)cn1
Reply: < 5.00

Task item: Lab note: need pKd with Receptor-interacting serine/threonine-protein kinase 1 (Homo sapiens) for entry C[C@H](Oc1cc(-c2n[nH]c(Nc3cnc(C4CCOCC4)cn3)c2C(N)=O)ccc1NS(=O)(=O)C(F)F)c1ccc(F)cc1 , please look it up.
Reply: < 4.52

Task item: Can you look up pKd on Receptor-interacting serine/threonine-protein kinase 1 (Homo sapiens) for NC(=O)c1c(-c2ccc(NS(=O)(=O)C(F)F)c(OC3(c4ccc(F)cc4)CC3)c2)n[nH]c1Nc1cnccn1 ?
Reply: < 4.52

Task item: Item: Nc1ncc(-c2cnn(C3CCOCC3)c2)c2occ(-c3ccc(NS(=O)(=O)C(F)F)c(OCc4ccc(F)cc4)c3)c12 Test system: Receptor-interacting serine/threonine-protein kinase 1 (Homo sapiens) Read-out: pKd Value: ?
Reply: < 5.00

Task item: Fill in the recorded pKd for this molecule, with Receptor-interacting serine/threonine-protein kinase 1 (Homo sapiens) as test system: Cc1cc(-c2ccc(NS(=O)(=O)C(F)F)c(OCc3ccc(F)cc3)c2)c2c(N)n[nH]c2n1
Reply: < 5.00

Task item: Any idea what pKd came out for C[C@H](Oc1cc(-c2n[nH]c(Nc3ccc(C4CCOCC4)cn3)c2C(N)=O)ccc1NS(=O)(=O)C(F)F)c1ccc(F)cc1 on Receptor-interacting serine/threonine-protein kinase 1 (Homo sapiens)?
Reply: < 4.52

Task item: Lab request: please report pKd under test system Receptor-interacting serine/threonine-protein kinase 1 (Homo sapiens) for Cc1cnc(Nc2[nH]nc(-c3ccc(NS(=O)(=O)CC(F)(F)F)c(OCc4ccc(Cl)cc4)c3)c2C(N)=O)cn1
Reply: < 4.52

Task item: pKd of C[C@H](Oc1cc(-c2nn(C)c3c(-c4ccncn4)cnc(N)c23)ccc1NS(=O)(=O)C(F)F)c1ccc(F)cc1 on Receptor-interacting serine/threonine-protein kinase 1 (Homo sapiens)?
Reply: < 5.00

Task item: Report pKd for Cn1nc(-c2ccc(NS(=O)(=O)C(F)F)c(OCc3ccc(F)cc3)c2)c2c(N)ncc(-c3cnn(C4CCOCC4)c3)c21 tested on Receptor-interacting serine/threonine-protein kinase 1 (Homo sapiens).
Reply: < 5.00
